# Target: S. aureus GyrB ATPase (Staphylococcus aureus, UniProt P0A0K8)
# Sequence (P0A0K8 whole entry): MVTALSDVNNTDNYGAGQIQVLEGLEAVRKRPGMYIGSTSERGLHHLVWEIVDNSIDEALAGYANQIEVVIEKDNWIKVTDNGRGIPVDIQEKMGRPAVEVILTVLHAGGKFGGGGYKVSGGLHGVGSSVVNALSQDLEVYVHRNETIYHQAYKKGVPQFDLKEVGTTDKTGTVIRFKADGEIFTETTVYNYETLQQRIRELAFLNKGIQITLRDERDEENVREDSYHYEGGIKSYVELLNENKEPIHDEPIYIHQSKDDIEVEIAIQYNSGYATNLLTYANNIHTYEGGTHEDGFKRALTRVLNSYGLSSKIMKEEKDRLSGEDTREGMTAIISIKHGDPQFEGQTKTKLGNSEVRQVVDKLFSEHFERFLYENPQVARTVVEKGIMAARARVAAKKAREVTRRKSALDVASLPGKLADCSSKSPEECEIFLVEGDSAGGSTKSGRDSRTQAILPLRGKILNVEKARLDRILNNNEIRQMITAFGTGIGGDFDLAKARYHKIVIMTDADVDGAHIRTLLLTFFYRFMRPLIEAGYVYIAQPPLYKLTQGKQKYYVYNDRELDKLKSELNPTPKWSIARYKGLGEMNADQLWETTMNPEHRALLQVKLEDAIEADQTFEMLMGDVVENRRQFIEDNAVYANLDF
# Sequence (P0AES4 whole entry, further chain): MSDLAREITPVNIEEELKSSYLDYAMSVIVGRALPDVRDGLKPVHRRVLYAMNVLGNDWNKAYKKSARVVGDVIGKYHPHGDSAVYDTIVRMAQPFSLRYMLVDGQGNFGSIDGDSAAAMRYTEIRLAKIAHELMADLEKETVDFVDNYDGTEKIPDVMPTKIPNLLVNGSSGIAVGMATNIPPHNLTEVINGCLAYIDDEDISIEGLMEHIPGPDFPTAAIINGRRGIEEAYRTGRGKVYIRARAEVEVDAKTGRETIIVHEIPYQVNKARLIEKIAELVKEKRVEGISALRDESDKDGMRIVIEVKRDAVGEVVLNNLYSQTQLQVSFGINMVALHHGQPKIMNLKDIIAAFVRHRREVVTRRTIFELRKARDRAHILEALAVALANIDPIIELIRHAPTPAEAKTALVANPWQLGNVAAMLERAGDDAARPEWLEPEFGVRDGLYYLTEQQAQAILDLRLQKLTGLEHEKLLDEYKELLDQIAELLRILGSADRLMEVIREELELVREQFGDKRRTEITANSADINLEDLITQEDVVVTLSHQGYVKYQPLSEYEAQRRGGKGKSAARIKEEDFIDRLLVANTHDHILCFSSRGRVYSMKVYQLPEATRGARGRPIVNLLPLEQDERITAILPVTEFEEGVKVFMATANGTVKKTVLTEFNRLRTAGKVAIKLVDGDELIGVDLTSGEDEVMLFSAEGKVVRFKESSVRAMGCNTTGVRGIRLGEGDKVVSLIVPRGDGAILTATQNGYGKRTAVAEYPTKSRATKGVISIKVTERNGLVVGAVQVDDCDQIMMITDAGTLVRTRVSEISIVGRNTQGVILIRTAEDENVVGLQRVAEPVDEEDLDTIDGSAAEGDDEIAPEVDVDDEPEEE
# Assay: biochemical
# Run parameters: compound at 1 μM; one value per test if tested more than once; read-out: % Inhibition of S. aureus GyrB ATPase
Recorded endpoint: inhibition at 1 µM (%)

• CCCNC(=O)Nc1cc(-c2nc(C(F)(F)F)cs2)c(-c2ccc3c(c2)c(=O)c(C(=O)NCCO)cn3CCC2CCN(C)CC2)cn1 = 94
• CCCNC(=O)Nc1cc(-c2nc(C(F)(F)F)cs2)c(-c2ccc3c(c2)c(=O)c(C(=O)NCCO)cn3CCC2CCOCC2)cn1 = 118
• CCNC(=O)Nc1cc(-c2nc(C(F)(F)F)cs2)c(-c2ccc3c(c2)c(=O)c(C(=O)N2CCN(C(C)=O)CC2)cn3C2CN(C)C2)cn1 = 105
• CCNC(=O)Nc1cc(-c2nc(CC)cs2)c(-c2ccc3c(c2)c(=O)c(C(=O)O)cn3CC)cn1 = 98
• CCCNC(=O)Nc1cc(-c2nc(C(F)(F)F)cs2)c(-c2ccc3c(c2)c(=O)c(C(=O)N2CCN(S(=O)(=O)N(C)C)CC2)cn3CCN(C)C)cn1 = 107
• CCNC(=O)Nc1cc(-c2nc(C(F)(F)F)cs2)c(-c2ccc3c(c2)c(=O)c(C(=O)O)cn3[C@@H]2CCCN(CC(C)(C)C)C2)cn1 = 102
• CCNC(=O)Nc1cc(-c2nc(C(F)(F)F)cs2)c(-c2ccc3c(=O)c(C(=O)NC)cn(CCC(C)C)c3c2)cn1 = 107
• CCNC(=O)Nc1cc(-c2nc(C(F)(F)F)cs2)c(-c2ccc3c(c2)c(=O)c(C(=O)O)cn3Cc2ccncc2)cn1 = 87
• CCNC(=O)Nc1cc(-c2nc(C(F)(F)F)cs2)c(-c2ccc3c(c2)c(=O)c(C(=O)O)cn3[C@H](CO)C(C)C)cn1 = 111
• CC(C)NC(=O)Nc1cc(-c2nc(C(F)(F)F)cs2)c(-c2ccc3c(c2)c(=O)c(C(=O)NCCN(C)C)cn3CCC2CCN(C)CC2)cn1 = 94
• CCNC(=O)Nc1cc(-c2nc(C(F)(F)F)cs2)c(-c2ccc3c(c2)c(=O)c(C(=O)O)cn3[C@H]2CCCN(C)C2)cn1 = 103
• CCNC(=O)Nc1cc(-c2nc(C(F)(F)F)cs2)c(-c2ccc3c(=O)c(C(=O)NCCCO)cn(CCC(C)C)c3c2)cn1 = 106
• CC(C)NC(=O)Nc1cc(-c2nc(C(F)(F)F)cs2)c(-c2ccc3c(c2)c(=O)c(C(=O)NCCO)cn3C2CCOCC2)cn1 = 93
